Provenance of the data: paper PMC12655637

Give IC50 for every item shown.
test system: RPMI-8226; experiment: NCI-60 screening, one-dose (10 µM) and five-dose, SRB; type: cell-based, human; settings: Homo sapiens, RPMI-8226, five-dose; RPMI-8226
Just the number please, in µM, no unit attached.

Qu. Identify measured IC50 associated with Cc1nc(SCC(=O)N2CCN(c3cc4c(cc3F)c(=O)c(C(=O)O)cn4C3CC3)CC2)sc1C(=O)/C=C/c1cccc(F)c1 [Compound 4d]
Ans. 0.34

Qu. Identify measured IC50 associated with Cc1nc(SCC(=O)N2CCN(c3cc4c(cc3F)c(=O)c(C(=O)O)cn4C3CC3)CC2)sc1C(=O)/C=C/c1cccc(Cl)c1 [Compound 4b]
Ans. 0.3
